Measured percent dimer (Monomer:Dimer Ratio), listed per entry.
# target_or_system: the molecule itself
# protocol: SEC
measure: percent dimer (Monomer:Dimer Ratio) (%)

protein	obs_value
MjCobY K19A (enzyme, Methanocaldococcus jannaschii, UniProt Q58517 1-196, looked up) MDALIMAGGKGTRMGGVEAPLIKLCGRCLIDYVVSPLLKSKVNNIFIATSPNTPKTKEYINSAYKDYKNIVVIDTSGKGYIEDLNECIGYFSEPFLVVSSDLINLKSKIINSIVDYFYCIKAKTPDVEALAVMIPKEKYPNPSIDFNGLVPAGINVVSPKHGYQKEEIMVIDELIFNINTKDDLKLAEMLLKKDGL	64
MjCobY E18D (enzyme, Methanocaldococcus jannaschii, UniProt Q58517 1-196, looked up) MDALIMAGGKGTRMGGVDKPLIKLCGRCLIDYVVSPLLKSKVNNIFIATSPNTPKTKEYINSAYKDYKNIVVIDTSGKGYIEDLNECIGYFSEPFLVVSSDLINLKSKIINSIVDYFYCIKAKTPDVEALAVMIPKEKYPNPSIDFNGLVPAGINVVSPKHGYQKEEIMVIDELIFNINTKDDLKLAEMLLKKDGL	60
MjCobY^G153D (enzyme, Methanocaldococcus jannaschii) MDALIMAGGKGTRMGGVEKPLIKLCGRCLIDYVVSPLLKSKVNNIFIATSPNTPKTKEYINSAYKDYKNIVVIDTSGKGYIEDLNECIGYFSEPFLVVSSDLINLKSKIINSIVDYFYCIKAKTPDVEALAVMIPKEKYPNPSIDFNGLVPADINVVSPKHGYQKEEIMVIDELIFNINTKDDLKLAEMLLKKDGL	46
MjCobY D83G (enzyme, Methanocaldococcus jannaschii, UniProt Q58517 1-196, looked up) MDALIMAGGKGTRMGGVEKPLIKLCGRCLIDYVVSPLLKSKVNNIFIATSPNTPKTKEYINSAYKDYKNIVVIDTSGKGYIEGLNECIGYFSEPFLVVSSDLINLKSKIINSIVDYFYCIKAKTPDVEALAVMIPKEKYPNPSIDFNGLVPAGINVVSPKHGYQKEEIMVIDELIFNINTKDDLKLAEMLLKKDGL	18
